Tested on: COLO 205
test summary: Cytotoxicity against human COLO205 cells after 48 hrs by MTT assay
Assay type: functional, cell-based
assay conditions: COLO 205, 48 h

compound	tested system	IC50
CC[C@@]1(O)C(=O)OCc2c1cc1n(c2=O)Cc2cc3ccccc3nc2-1 [CAMPTOTHECIN]	COLO 205	0.05 µM
CC1(C)C=Cc2c(OCc3ccccc3)cc(O)c(C(=O)/C=C/c3ccccc3)c2O1	COLO 205	> 20 µM
CC(=O)c1c(O)c(C)c(O)c(Cc2c(O)c3c(c(C(=O)/C=C/c4ccccc4)c2O)OC(C)(C)C=C3)c1O [ROTTLERIN]	COLO 205	> 20 µM
CC(=O)c1c(O)c(C)c(O)c(Cc2c(O)c(CC=C(C)C)c(O)c3c2O[C@H](c2ccccc2)CC3=O)c1O	COLO 205	> 20 µM

----------
Tested on: MIA PaCa-2
test summary: Cytotoxicity against human MIAPaCa2 cells after 48 hrs by MTT assay
Type: functional, cell-based
assay conditions: MIA PaCa-2, 48 h

molecule	relation symbol	IC50, µM
CC(=O)c1c(O)c(C)c(O)c(Cc2c(O)c3c(c(C(=O)/C=C/c4ccccc4)c2O)OC(C)(C)C=C3)c1O [ROTTLERIN]	=	8
CC1(C)C=Cc2c(OCc3ccccc3)cc(O)c(C(=O)/C=C/c3ccccc3)c2O1	>	20
CC[C@@]1(O)C(=O)OCc2c1cc1n(c2=O)Cc2cc3ccccc3nc2-1 [CAMPTOTHECIN]	=	0.19
CC(=O)c1c(O)c(C)c(O)c(Cc2c(O)c(CC=C(C)C)c(O)c3c2O[C@H](c2ccccc2)CC3=O)c1O	=	9

----------
System: PC-3
test summary: Cytotoxicity against human PC3 cells after 48 hrs by MTT assay
Assay type: functional, cell-based
assay conditions: PC-3, 48 h
Measured IC50 accompanies every entry in the list below.

molecule	IC50
CC(=O)c1c(O)c(C)c(O)c(Cc2c(O)c3c(c(C(=O)/C=C/c4ccccc4)c2O)OC(C)(C)C=C3)c1O [ROTTLERIN]	> 20 µM
CC1(C)C=Cc2c(OCc3ccccc3)cc(O)c(C(=O)/C=C/c3ccccc3)c2O1	> 20 µM
CC[C@@]1(O)C(=O)OCc2c1cc1n(c2=O)Cc2cc3ccccc3nc2-1 [CAMPTOTHECIN]	1.2 µM
CC(=O)c1c(O)c(C)c(O)c(Cc2c(O)c(CC=C(C)C)c(O)c3c2O[C@H](c2ccccc2)CC3=O)c1O	> 20 µM

----------
Each entry below carries its reported IC50.
Test system: HepG2
test summary: Cytotoxicity against human HepG2 cells after 48 hrs by MTT assay
Format: functional, cell-based
assay conditions: HepG2, 48 h
readout name: IC50

molecule	tested system	result
CC1(C)C=Cc2c(OCc3ccccc3)cc(O)c(C(=O)/C=C/c3ccccc3)c2O1	HepG2	> 20 µM
CC(=O)c1c(O)c(C)c(O)c(Cc2c(O)c(CC=C(C)C)c(O)c3c2O[C@H](c2ccccc2)CC3=O)c1O	HepG2	> 20 µM
CC(=O)c1c(O)c(C)c(O)c(Cc2c(O)c3c(c(C(=O)/C=C/c4ccccc4)c2O)OC(C)(C)C=C3)c1O [ROTTLERIN]	HepG2	> 20 µM
CC[C@@]1(O)C(=O)OCc2c1cc1n(c2=O)Cc2cc3ccccc3nc2-1 [CAMPTOTHECIN]	HepG2	0.2 µM

Where these numbers come from: ChEMBL document CHEMBL2424563
